System: OVCAR-5 ovarian
Method Summary: NCI tumour cell line growth inhibition, 48 h
Assay Metric: TGI

Compound	Result
O=C1SC(SCc2ccccc2)=NC12CC2c1ccccc1 (stereo unspecified)	38.9 µM
C[N+]12C=CC=C1C(N1CCCC1)c1scc(-c3ccc(Br)cc3)c12 (stereo unspecified)	> 100 µM
CCOC(=O)/C(=C/c1ccc(OC)cc1)N(CC)CC	> 100 µM
COc1cc(-c2nn(-c3cccc(NC(=O)c4ccccc4)c3)cc2-c2ccncc2)ccc1Cl	> 100 µM
CC1=C/C(=N\NC(N)=S)C(C(O)(C(F)(F)F)C(F)(F)F)C(C)(C)C1 (stereo unspecified)	> 10 µM
COc1cc2c(cc1OC)-c1cc(OC)c(OC)cc1C(CN(C)C)C2 (stereo unspecified)	> 10 µM

Data request: // lookup TGI | system=OVCAR-5 ovarian | key= O=C(Nc1nc(=S)[nH][nH]1)C(=O)C(C(=O)c1ccc2ccccc2c1)C1OC(=O)c2ccccc21 (stereo unspecified)
Data returned: > 100 µM

Data request: // lookup TGI | system=OVCAR-5 ovarian | key= O=C(Nc1c(O)[nH]c(=S)[nH]c1=O)c1ccccc1
Data returned: > 100 µM

Data request: // lookup TGI | system=OVCAR-5 ovarian | key= O=[N+]([O-])c1cc([N+](=O)[O-])c(C(F)(F)F)cc1NN=C(c1ccc(O)cc1)c1ccc(O)cc1
Data returned: 50 µM

Data request: // lookup TGI | system=OVCAR-5 ovarian | key= COc1cccc(-c2cc(=O)c3cc(N4CCCCC4)ccc3[nH]2)c1
Data returned: > 100 µM
